System: EKVX NSCLC
Experiment: NCI tumour cell line growth inhibition, 48 h
observable: TGI

{"smi": "CCN1CCN(c2cc(C)nc(N(CCCNc3ccnc4cc(Cl)ccc34)Cc3ccc4c(c3)OCO4)n2)CC1", "TGI": "> 100 µM"}
{"smi": "COc1ccccc1N=Nc1c(O)c(S(=O)(=O)O)cc2cc(S(=O)(=O)O)ccc12", "TGI": "> 100 µM"}
{"smi": "CC(=O)NC1=C(NCCCl)C(=O)c2ccccc2C1=O", "TGI": "> 100 µM"}

For record `N#C/C(=C\c1cccc(O)c1O)C(N)=O` the listed TGI is > 100 µM

For record `C[N+](C)(C)C=Nc1cccc2c1CCCC2` the listed TGI is > 100 µM

For record `C[Si](C)(C)C(CCCCSc1ccccc1)(Sc1ccccc1)Sc1ccccc1` the listed TGI is > 100 µM
